# Tested on: SK-MEL-5 melanoma
# assay.name: NCI tumour cell line growth inhibition, 48 h
property.measured: TGI

O=C(/C=C/c1ccc2c(c1)OCO2)CC(=O)C(=O)c1c[nH]c2ccccc12 :: > 100 µM
Cc1ccccc1S(=O)(=O)OC1NS(=O)(=O)c2ccccc21 (stereo not given) :: > 100 µM
O=C(Nc1nccs1)c1c(O)nc2sccn2c1=O :: > 10 µM
CCOC(=O)Cn1c(=O)c2nc(SC)sc2n(-c2ccccc2)c1=O :: > 100 µM

Now for another entry.
Given CC(=O)[C@@]12O[C@@H]1CC1C3CCC4=CC(O)CCC4(C)C3CCC12C (stereo not given in full) , state its recorded TGI.
> 100 µM

###

# Tested on: SK-MEL-28 melanoma
# assay.name: NCI tumour cell line growth inhibition, 48 h
property.measured: TGI (µM)
Enter your answer as a number in µM; do not include the unit.

CCN(CC)/C(SCc1ccccc1)=C(\C(Cl)=C(Cl)Cl)[N+](=O)[O-] :: 33.9

Now for another entry.
Given C=CCSc1nnc2cc(CN3CCCC3)c(-c3ccc(Cl)cc3)nn12 , state its recorded TGI.
47.8

###

Below is a list of entries, each paired with its recorded TGI value.
# Tested on: UO-31 renal
# assay.name: NCI tumour cell line growth inhibition, 48 h

CCCC(=O)OC1CC(n2cc(F)c(=O)[nH]c2=O)OC1COP(=O)(OCC(Cl)(Cl)Cl)OCC(Cl)(Cl)Cl (centres undefined) :: > 100 µM
CCN(CCCN(CC)C(=O)Nc1c(C)cccc1C)C(=O)Nc1c(C)cccc1C :: > 100 µM
CC1=NS(=O)(=O)c2ccccc2N1 :: > 100 µM
CCOC(=O)NC(=O)c1cn(CCCO)c(=O)[nH]c1=O :: > 100 µM
COc1ccc([C@H]2[C@@H](F)C(=O)N2c2cc(OC)c(OC)c(OC)c2)cc1F :: > 100 µM

Give UO-31 renal TGI for O=C(O)c1ccccc1CC1Cc2ccccc2C1=O (centres undefined)
> 100 µM

Give UO-31 renal TGI for CC(=O)OC1=CC(n2cc(F)c(=O)[nH]c2=O)OC(C)C1=O (centres undefined)
> 100 µM

Give UO-31 renal TGI for COc1ccc(/C=C(/C#N)n2nnc3cccc(F)c32)cc1
6.87 µM

###

Below is a list of entries, each paired with its recorded TGI value.
# Test system: SF-539 CNS
# assay.name: NCI tumour cell line growth inhibition, 48 h

Given NC1=NCC(CN2CCOCC2)O1 (stereo not given) , state its recorded TGI.
> 100 µM

Given CC(=O)OC1COC(n2ccc3cc(Br)c([N+](=O)[O-])cc32)C(OC(C)=O)C1OC(C)=O (stereo not given) , state its recorded TGI.
44.4 µM

Given N=C(N)SCc1ccc2c(c1)Sc1ccccc1O2 , state its recorded TGI.
7.79 µM

Given CC(C)OP(=O)(OC(C)C)C(=NCCN=C(NNc1ccc([N+](=O)[O-])cc1)P(=O)(OC(C)C)OC(C)C)NNc1ccc([N+](=O)[O-])cc1 , state its recorded TGI.
> 100 µM

Given O=c1[nH]c(=O)n(C2OC(CO)C(O)C2O)c2nc(-c3ccc(-c4ccccc4)cc3)cnc12 (stereo not given) , state its recorded TGI.
> 100 µM

###

# Test system: NCI-H226 lung
# assay.name: NCI tumour cell line growth inhibition, 48 h
property.measured: TGI

CCCCCCN(CCCCCC)C(=O)Cc1c2n(c3ccccc13)Cc1ccccc1-2 :: > 100 µM
O=c1cc(-c2ccccc2)oc2cc(OCCCOc3ccc4c(=O)cc(-c5ccccc5)oc4c3)ccc12 :: > 100 µM
CCc1cc(Cc2cc(CC)c(NC(=O)C(=O)Cc3ccccn3)c(CC)c2Cl)c(Cl)c(CC)c1NC(=O)C(=O)Cc1ccccn1 :: > 100 µM
CN(C)c1nc(=Nc2ccc(N=c3nc(N(C)C)ss3)cc2)ss1 :: > 100 µM
COc1cccc(-c2nc(-c3ccc(NC(=O)C(C)C)cc3)[nH]c2-c2ccnc(Br)c2)c1 :: 21.4 µM
CC(C)=Cc1cc(C(=O)Nc2ccc(Cl)c(Cl)c2)nc(N)n1 :: > 100 µM
CCOC(=O)c1nc2c(nc1C(=O)OCC)C(=O)c1ccccc1C2=O :: 1.5 µM
O=S1(=O)OCCOS(=O)(=O)C1Br :: > 100 µM
Cc1ccc(-c2[nH]c(=O)n(C3OC(CO)C(O)C(O)C3O)c(=O)c2C#N)cc1 (configuration not stated) :: > 100 µM
Nc1ncnc2n[nH]c(Nc3ccc(F)cc3)c12 :: > 100 µM

Given Cc1ccc2c(c1)C(=O)C1(Cc3ccccc3C1=O)C2 (configuration not stated) , state its recorded TGI.
> 100 µM

Given CS(=O)(=O)OCC(CCl)(CCl)CCl , state its recorded TGI.
> 100 µM

###

# Test system: SK-MEL-5 melanoma
# assay.name: NCI tumour cell line growth inhibition, 48 h
Below is a list of entries, each paired with its recorded TGI value.
Enter your answer as a number in µM; do not include the unit.

// below: answered compounds
COc1ccc(-c2nnc(COc3ccc(NC(=O)Nc4cc(C(F)(F)F)cc(C(F)(F)F)c4)cc3F)o2)cc1 :: 3.84
CCN(CC)/C(SCc1ccccc1)=C(\C(Cl)=C(Cl)Cl)[N+](=O)[O-] :: 30.5
COC(=O)C1CCC(=O)N1C(c1ccc(OC)cc1)c1ccc2c(c1)OCO2 (stereo unspecified) :: 81.7

Given COC(=O)C1=C(C)NC(C)=C(C(=O)OCCCN2CCC(c3ccccc3)(c3ccccc3)CC2)C1c1cccc([N+](=O)[O-])c1 (stereo unspecified) , state its recorded TGI.
3.16

Given C=C1C(=O)O[C@H]2[C@H]1CC/C(COC(=O)c1c[nH]c3ccccc13)=C\CC[C@@]1(C)O[C@@H]21 , state its recorded TGI.
0.499

Given OCc1ccc(-c2ccc(-c3ccc(CO)s3)o2)s1 , state its recorded TGI.
69.7

###

# Test system: KM12 colon
# assay.name: NCI tumour cell line growth inhibition, 48 h
Below is a list of entries, each paired with its recorded TGI value.

Given Cc1ccccc1S(=O)(=O)OC1NS(=O)(=O)c2ccccc21 (centres undefined) , state its recorded TGI.
> 100 µM

Given O=c1cc(-c2ccccc2)oc2cc(OCCCOc3ccc4c(=O)cc(-c5ccccc5)oc4c3)ccc12 , state its recorded TGI.
> 100 µM

Given COc1ccc(-c2nnc(COc3ccc(C(=O)/C=C/c4ccco4)cc3)o2)cc1 , state its recorded TGI.
3.62 µM

Given CCOC(=O)NC(=O)c1cn(CCCO)c(=O)[nH]c1=O , state its recorded TGI.
> 100 µM

Given C=C1NC(=O)C(C(C)CC)NC(=O)C2CSCC(NC(=O)CCC(=O)O)C(=O)NC(Cc3ccccc3)C(=O)NC(C)C(=O)NC(CC(C)CC)C(=O)NC(C(=O)NC(Cc3ccccc3)C(=O)N3CCCC3C(=O)N2)C(C)OC(=O)C(CO)NC(=O)C(C(O)COC)N(C)C(=O)C(C(C)C)NC(=O)C(CC(C)CC)NC1=O (centres undefined) , state its recorded TGI.
> 6 µM

Given CCCCCCOc1ccc(C(=O)NOC)cc1 , state its recorded TGI.
> 100 µM

Given CSc1nc(NC2OCC(OC(C)=O)C(OC(C)=O)C2OC(C)=O)c(N=CC=Nc2c(NC3OCC(OC(C)=O)C(OC(C)=O)C3OC(C)=O)nc(SC)[nH]c2=O)c(=O)[nH]1 (centres undefined) , state its recorded TGI.
> 100 µM

Given OCCCCCNCc1cc2cc3c(cc2c2cc(OCc4ccccc4)ccc12)OCO3 , state its recorded TGI.
2.97 µM

Given Cn1cnc([N+](=O)[O-])c1Sc1nc2ccccc2[nH]1 , state its recorded TGI.
48.4 µM

###

# Tested on: TK-10 renal
# assay.name: NCI tumour cell line growth inhibition, 48 h
property.measured: TGI

O=C1c2cc3c(cc2-c2c1c1ccc(F)cc1c(=O)n2CCCNCCO)OCO3 :: 0.487 µM
N#Cc1c(-c2ccccc2)/c(=C\Nc2ccc(F)cc2)c(=O)n2c1nc1ccccc12 :: > 100 µM
COc1ccc2c(C)cc(=O)oc2c1OC :: > 100 µM
COc1ccc(S(=O)(=O)NNS(C)(=O)=O)cc1 :: > 100 µM
[O-][n+]1ccccc1Sc1nc(Sc2cccc[n+]2[O-])nc(Sc2cccc[n+]2[O-])n1 :: 3.82 µM
O=C1NCC2(CCN(CCCC3(c4ccc(F)cc4)OCCO3)CC2)N1c1ccccc1 :: > 100 µM
Cc1c2c(nn1-c1ccc(S(=O)(=O)/N=C3\SCCC(=O)N3c3ccccc3)cc1)-c1ccccc1CC2 :: > 100 µM
COc1cc(C2c3cc4c(cc3OC(NN)C2C)OCO4)cc(OC)c1OC (stereo unspecified) :: > 100 µM

Give TK-10 renal TGI for Cc1cccc2c1CC1(C2)Cc2c(C)cccc2C1=O (stereo unspecified)
92.1 µM

Give TK-10 renal TGI for CCCCCCCC(=O)SCC/C=C/[C@@H]1CC(=O)NCc2cc(ccn2)C2=N[C@@](C)(CS2)C(=O)N[C@@H](C(C)C)C(=O)O1
0.173 µM

Give TK-10 renal TGI for CCc1cc(Cc2cc(CC)c(NC(=O)C(=O)Cc3ccccn3)c(CC)c2Cl)c(Cl)c(CC)c1NC(=O)C(=O)Cc1ccccn1
> 100 µM

Give TK-10 renal TGI for CSC(=S)N/N=C(\C)c1ccc(S(=O)(=O)N(C)c2ccccc2)cc1
> 100 µM

Give TK-10 renal TGI for COc1ccc([C@H]2[C@@H](F)C(=O)N2c2cc(OC)c(OC)c(OC)c2)cc1F
> 100 µM

Give TK-10 renal TGI for CS(=O)c1ncc2c(n1)-c1ccccc1OC2 (stereo unspecified)
> 100 µM
